Each entry below carries its reported IC50.
target: IRAK4 (Homo sapiens (Human), UniProt Q9NWZ3); experiment: IRAK4 Kinase Assay; assay type: biochemical; conditions: IMAP fluorescence polarization, 0.5 nM GST tagged IRAK4, 100 μM ATP, 30 minutes at 25° C.; read-out: IRAK4 IC50
Sequence (Q9NWZ3 whole entry): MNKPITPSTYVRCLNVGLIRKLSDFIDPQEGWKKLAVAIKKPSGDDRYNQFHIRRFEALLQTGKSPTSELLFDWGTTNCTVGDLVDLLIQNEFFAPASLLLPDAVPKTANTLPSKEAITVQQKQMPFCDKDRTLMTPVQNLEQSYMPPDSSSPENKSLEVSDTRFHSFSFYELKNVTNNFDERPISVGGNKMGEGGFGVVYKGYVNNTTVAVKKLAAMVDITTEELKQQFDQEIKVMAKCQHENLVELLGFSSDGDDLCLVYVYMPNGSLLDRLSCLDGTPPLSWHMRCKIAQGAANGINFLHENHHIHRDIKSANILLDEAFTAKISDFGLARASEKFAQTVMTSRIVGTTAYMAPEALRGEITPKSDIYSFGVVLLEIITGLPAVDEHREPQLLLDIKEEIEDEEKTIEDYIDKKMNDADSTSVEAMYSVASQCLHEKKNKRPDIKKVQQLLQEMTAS
Where a name gives a salt, the structure may show the parent alone.
Your answer is read as nM, so omit the unit and give the number.

compound="Cn1cc(NC(=O)c2cnn3ccc(NC4CNCCC4F)nc23)c(C(F)F)n1 (single isomer, unassigned) [Example 237]" readout_value=0.6
compound=CCN1CCCN(c2ccn3ncc(C(=O)Nc4cn(C)nc4C(F)(F)F)c3n2)CC1 readout_value=1100
compound=N[C@@H]1[C@H](Nc2ccn3ncc(C(=O)Nc4ccsc4C(F)F)c3n2)CCCC1(F)F readout_value=560
compound="Cn1cc(NC(=O)c2cnn3ccc(N4CCNCC4CC(F)(F)F)nc23)c(C(F)(F)F)n1 (stereo not shown) [Example 41, trifluoroacetate]" readout_value=106
compound="Cn1cc(NC(=O)c2cnn3ccc(N[C@H]4CNCC(F)(F)C4)nc23)c(C(F)(F)F)n1 (single isomer, unassigned)" readout_value=7
compound="Cn1cc(NC(=O)c2cnn3ccc(N4CCNCC4(C)C)nc23)c(C(F)(F)F)n1 [Example 216, trifluoroacetate]" readout_value=127

Q) Any idea what IC50 was measured for `O=C(Nc1ccsc1Cl)c1cnn2ccc(N[C@@H]3CCCC[C@@H]3O)nc12` ?
A) 1580

Q) Let us now turn to CC(C)(C)n1cc(NC(=O)c2cnn3ccc(N4CCNCC4)nc23)c(C(F)(F)F)n1 [Example 46, trifluoroacetate]
A) 48

Q) Let us now turn to Cn1cc(NC(=O)c2cnn3ccc(N4CCN5CCC4CC5)nc23)c(C(F)(F)F)n1 [Example 40, trifluoroacetate]
A) 497
